Biological target: T1, MotA (Enterobacteria phage T4, UniProt P22915 1-211)
T1 sequence: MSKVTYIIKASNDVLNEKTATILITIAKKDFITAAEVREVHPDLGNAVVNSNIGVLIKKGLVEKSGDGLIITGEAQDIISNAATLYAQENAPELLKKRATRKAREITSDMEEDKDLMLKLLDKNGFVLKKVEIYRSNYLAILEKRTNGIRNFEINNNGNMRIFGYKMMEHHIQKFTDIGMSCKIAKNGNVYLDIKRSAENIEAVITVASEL
Test: EMSA; steep curve, value uncertain; EMSA: 0.01 pmol 32P-DNA, 1.7 pmol MotA, native 12% PAGE in 1x TBE at 4 C, other conditions as in ref 14; SPR: biotin-DNA on neutravidin chip, buffer as in ref 2
pKd: −log10 of the molar value.
reportedEndpoint: pKd

Read off the recorded pKd for EMSA 19-mer GHMe/unmod (dsDNA, beta-D-glucosyl-5-hydroxymethyl-dC at top C10) DNA 1: AATTATTTGCTTTAGATTA DNA 2: TAATCTAAAGCAAATAATT ~7.70
